This collection of values is drawn from patent US20050096278A1.

Test system: H. influenzae HI-3542
Could you please mark YES for values of MIC below 0.03 µg/mL and NO for values at or above it?

Example entries and their recorded answers appear below.
> print(dat)
                                    compound            system.name  group.label
 1  Cc1c(N2CCC(O)C(C)(C)C2)c(F)cc2c(=O)c(C(=O)O)cn(C3CC3)c12 (centres unmarked) [drawing 330]  H. influenzae HI-3542           NO
 2  COc1c(N2CCC(O)C(C)(C)C2)c(F)cc2c(=O)c(C(=O)O)cn(C3CC3)c12 (centres unmarked) [drawing 331]  H. influenzae HI-3542           NO
 3  COc1c(N2CCCC(O)C2)c(F)cc2c(=O)c(C(=O)O)cn(C3CC3)c12 (centres unmarked) [drawing 339]  H. influenzae HI-3542          YES
 4  COc1c(N2CCC(O)(CO)CC2)c(F)cc2c(=O)c(C(=O)O)cn(C3CC3)c12 [drawing 328]  H. influenzae HI-3542          YES
 5  COc1c(N2CCC(CO)CC2)c(F)cc2c(=O)c(C(=O)O)cn(C3CC3)c12 [drawing 329]  H. influenzae HI-3542          YES
 6  COc1c(N2CCCC(C(O)CO)C2)c(F)cc2c(=O)c(C(=O)O)cn(C3CC3)c12 (centres unmarked) [drawing 334]  H. influenzae HI-3542           NO
 7  COc1c(N2CCC3(CC2)OCCO3)c(F)cc2c(=O)c(C(=O)O)cn(C3CC3)c12 [drawing 325]  H. influenzae HI-3542           NO
 8  COc1c(N2CCC(O)C(CO)C2)c(F)cc2c(=O)c(C(=O)O)cn(C3CC3)c12 (centres unmarked) [drawing 324]  H. influenzae HI-3542          YES
 9  Cc1c(N2CCCC(O)C2)c(F)cc2c(=O)c(C(=O)O)cn(C3CC3)c12 (centres unmarked) [drawing 340]  H. influenzae HI-3542          YES
10  Cc1c(N2CCCC(C)(O)C2)c(F)cc2c(=O)c(C(=O)O)cn(C3CC3)c12 (centres unmarked) [drawing 341]  H. influenzae HI-3542           NO

Q: Is it true that MIC reported for COc1c(N2CCC(O)C(O)C2)c(F)cc2c(=O)c(C(=O)O)cn(C3CC3)c12 (centres unmarked) [drawing 338] is less than 0.03 µg/mL?
A: YES

Q: Given the entry COc1c(N2CCC(O)(c3ccccc3)CC2)c(F)cc2c(=O)c(C(=O)O)cn(C3CC3)c12 [drawing 333] , would its reported MIC be below 0.03 µg/mL?
A: NO
